B1: OR4K15 (parent)
chain: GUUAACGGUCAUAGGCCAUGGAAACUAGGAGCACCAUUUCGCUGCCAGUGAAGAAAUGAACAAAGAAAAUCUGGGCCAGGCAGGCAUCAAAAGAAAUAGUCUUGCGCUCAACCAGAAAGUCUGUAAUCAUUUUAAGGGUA

Variants of: B1
Experiment: self-cleavage, relative activity (ratio to wild type); higher = more cleavage; in vitro, sequencing; the parent is a self-cleaving ribozyme
observationType: self-cleavage

{"seqText": "GUUAACGGUCAUAGGCCAUGGAAACUAGGAGCACCAUUUCGCUGCCAGUGAAGAAAUGACCAAAGAAAAUCUGGGCCAGGCAGGCAUCAAAAGAAAUAGUCUUGCGCUCAACCAGAAAGUCUGUAAUCACUUUAAGGGUA [A60C U130C]", "self-cleavage": 1.4}
{"seqText": "GUUAACGGUCAUAGGCCAUGGAAACUAGGAGCACCAUUUCGCUGCCAGUGAAGAAAUGAACAAAGAAAAUCUGGGCCAGGCAGGCAUCAAAAGAAAUAGCCUUGCGCUCAACCAGAAAGUCUGUAAUCAUUUUAGGGGUA [U100C A135G]", "self-cleavage": 1.74}
{"seqText": "GUUAGCGGUCAUGGGCCAUGGAAACUAGGAGCACCAUUUCGCUGCCAGUGAAGAAAUGAACAAAGAAAAUCUGGGCCAGGCAGGCAUCAAAAGAAAUAGUCUUGCGCUCAACCAGAAAGUCUGUAAUCAUUUUAAGGGUA [A5G A13G]", "self-cleavage": 0.89}
{"seqText": "GUUAACGGUCAUAGGCCAUGGAAACUAGGAGCACCAUUUCGCUGGCAGUGAAGAAAUGAACAAAGAAAAUCUGGGCCAGGCAGGCAUCAAAAGAAAUAGUCUUGCGCUCAACCAGAAAGUCUGUAAUCAUUUUAAGGGUA [C45G]", "self-cleavage": 1.37}
{"seqText": "GUUGACGGUCAUAGGCCAUGGAAACUAGGAGCACCAUUUCGCUGCCAGUGAAGAAAUGAACAAAGAAAAUCUGGGCCAGGCAGGCAUCAAAAGAAGUAGUCUUGCGCUCAACCAGAAAGUCUGUAAUCAUUUUAAGGGUA [A4G A96G]", "self-cleavage": 1.4}

Provide the reported self-cleavage of each entry below, same order.
1. GUUAACGGUCAUAGGCCAUGGAAACUAGGAGCACCGUUUCGCUGCCAGUGAAGAAAUGAACAAAGAAAAUCUGGGCCAGGCAGGCAUCAAAAGAAAUAGUCUUGCGCUCAACCAGAAAGUCUGUAAUCAUCUUAAGGGUA [A36G U131C]
2. GUUAACGGUCAUAGGCCAUGGAAACUAGGAGCACCAUUUCGCUGCCAGUGAAGAAAUGAACGAAGAAAAUCUGGGCUAGGCAGGCAUCAAAAGAAAUAGUCUUGCGCUCAACCAGAAAGUCUGUAAUCAUUUUAAGGGUA [A62G C77U]
3. GUUAGCGGUCACAGGCCAUGGAAACUAGGAGCACCAUUUCGCUGCCAGUGAAGAAAUGAACAAAGAAAAUCUGGGCCAGGCAGGCAUCAAAAGAAAUAGUCUUGCGCUCAACCAGAAAGUCUGUAAUCAUUUUAAGGGUA [A5G U12C]
4. GUUAACGGUCAUAGGCCAUGGAAACUAGGAGCACCAUUUCGCUGCCAGUGAAGAAAUGAACAAAGAAAAUCUGGGCCAGGCAGGCAUCAAAAGAAAGGGUCUUGCGCUCAACCAGAAAGUCUGUAAUCAUUUUAAGGGUA [U97G A98G]
5. GUUAACGGUCAUAGGCCAUGGAAACUAGGAGCACCAUUUCGCUGCCAGUGAAGAAAUGAACAAAGAAAAUCAGGGCCAGGCAGGCAUCAAAAGAAAUAGUCUUGCGCUCAACCAGAAAGUCUGUAAUCAUUUGAAGGGUA [U72A U133G]

output:
[1.59, 2.24, 1.02, 1.98, 0.36]

Provide the reported self-cleavage of each entry below, same order.
1. GUUAACGGUCAUAGGCCAUGGAAACUAGGCGCACCAUCUCGCUGCCAGUGAAGAAAUGAACAAAGAAAAUCUGGGCCAGGCAGGCAUCAAAAGAAAUAGUCUUGCGCUCAACCAGAAAGUCUGUAAUCAUUUUAAGGGUA [A30C U38C]
2. GUUAACGGUCAUAGGCCAUGGAAACUAGGAGCACCAUUUCGCUGCCAGUGUAGAAAUGAACAAAGAAAAUCUGGGCCAGGCGGGCAUCAAAAGAAAUAGUCUUGCGCUCAACCAGAAAGUCUGUAAUCAUUUUAAGGGUA [A51U A82G]
3. GUUAACGGUCAUAGGCCAUGGAAACUAGGAGCACCAUUUCGCUGCCAGUGAGGAAAUGAACAAAGAAAUUCUGGGCCAGGCAGGCAUCAAAAGAAAUAGUCUUGCGCUCAACCAGAAAGUCUGUAAUCAUUUUAAGGGUA [A52G A69U]
4. GUUAACGGUCAUAGGCCAUGGAAACUAGGAGCACCAUUUCGCUCCCAGUGAAGAAAUGAACAAAGAAAAUCUGGGCCAGGCAGGCAUCAAAAGAAAUAGUCCUGCGCUCAACCAGAAAGUCUGUAAUCAUUUUAAGGGUA [G44C U102C]

output:
1: 1.02; 2: 0.68; 3: 1.25; 4: 2.81

Provide the reported self-cleavage of each entry below, same order.
1. GUUAACGGUCAUAGGCCAUGGAAACUAGGAGCACCAUUUCGCUGCCAGUGAAGAAAUGAACAAAGAAAAUCUGGGCCAGGCAGGCAUCAAAAGAAAUAGUCUUGCGCUCAACCGGAAAGUCUGUAAUCUUUUUAAGGGUA [A114G A129U]
2. GUUAACGGUCAUAGGCCAUGGAAACUAGGAGCACCAUUUCGCUGCCAGUGAAGAAGUGAACAAAGAAAAUCUGGGCCAGGCAGGCAUCAAAAGAAAUAGUCUUGCGCUCAACCAGAAAGUCUGUAAUCCUUUUAAGGGUA [A56G A129C]
3. GUUAACGGUCAUAGGCCAUGGAAACUAGGAGCACCAUUUCGCUGCCAGUGAAGAAAUGAACAAAGAAAUUCUGGGCCAGGCAGGCAUCAAAGGAAAUAGUCUUGCGCUCAACCAGAAAGUCUGUAAUCAUUUUAAGGGUA [A69U A92G]
4. GUUAACGGUCAUAGGCCAUGGAAGCUAGGAGCACCAUUUCGCUGCCAGUGAAGAAAUGUACAAAGAAAAUCUGGGCCAGGCAGGCAUCAAAAGAAAUAGUCUUGCGCUCAACCAGAAAGUCUGUAAUCAUUUUAAGGGUA [A24G A59U]
5. GUUAACGGUCAUAGGCCAUGGAAACUAGGAGCACCAUUUCGCUGCCAGUGAGGAAAUGAACAAAGAAAAUCUGGGCCAGGCAGGCAUCAAAAGAAAUAGUCUUGCGCUCAACCAGAAAGUCUGUAGUCAUUUUAAGGGUA [A52G A126G]
6. GUUAACGGUCAUAGGACAUGGAAACUAGGAGCACCAUUUCGCUGCCAGUGAAGAAAUGAACAAAGAAAAUCUGGGCCAGUCAGGCAUCAAAAGAAAUAGUCUUGCGCUCAACCAGAAAGUCUGUAAUCAUUUUAAGGGUA [C16A G80U]
7. GUUAACGGUCAUAGGCCAUGGAAACUAGGAGCACCAUUUCGCUGCCAGUGAAGAAAUGAACAAAGAAAAUCUGGGCCAGGCUGGCGUCAAAAGAAAUAGUCUUGCGCUCAACCAGAAAGUCUGUAAUCAUUUUAAGGGUA [A82U A86G]

output:
1. 0.13
2. 1.03
3. 2.17
4. 0.51
5. 0.47
6. 0.12
7. 0.12

Provide the reported self-cleavage of each entry below, same order.
1. GUUAACGGUCAUAGGCCAUGGAAACUAGGAGCACCAUUUCGCUGCCAGUGAAGAAGUGAACAAAGAAAAUCUGGGCCAGGCAGGCAUCAAAAGAAAUAGUCUCGCGCUCAACCAGAAAGUCUGUAAUCAUUUUAAGGGUA [A56G U103C]
2. GUUAACGGUCAUAGGCCGUGGAAACUAGGAGCACCAUUUCGCUGCCAGUGAAGAAAUGAACAAAGAUAAUCUGGGCCAGGCAGGCAUCAAAAGAAAUAGUCUUGCGCUCAACCAGAAAGUCUGUAAUCAUUUUAAGGGUA [A18G A67U]
3. GUUAACGGUCAUAGGCCAUGGAAACUAGGAGCACCAUUUCGCUGCCAGUGAAGAGAUGAACAAAGAAAAUCUGGGCCAGGCAGGCAUCAAAAGAAAUAGUCUUGCGCUCAACCAGAAAGUCUGUGAUCAUUUUAAGGGUA [A55G A125G]
4. GUUAACGGUCAUAGGCCAUGGAAACUAGGAGCACCAUUUAGCUGCCAGUGAAGAAAUGAACAAAGGAAAUCUGGGCCAGGCAGGCAUCAAAAGAAAUAGUCUUGCGCUCAACCAGAAAGUCUGUAAUCAUUUUAAGGGUA [C40A A66G]
5. GUUAACGGUCAUAGGCCAUGGAAACUAGGAGCACCAUUUCGCUGCCAGUGAAGAAAGGAACAAAGAAAAUCUGGGCCAGGCAGGCAUCAAAAGAGAUAGUCUUGCGCUCAACCAGAAAGUCUGUAAUCAUUUUAAGGGUA [U57G A95G]

output:
0.25
1.79
0.45
1.69
2.15
